B1: Pistol ribozyme (parent)
chain: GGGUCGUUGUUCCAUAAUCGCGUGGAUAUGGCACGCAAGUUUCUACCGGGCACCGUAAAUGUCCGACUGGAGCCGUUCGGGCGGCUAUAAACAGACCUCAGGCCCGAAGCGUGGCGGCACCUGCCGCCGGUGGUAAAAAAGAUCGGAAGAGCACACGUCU

- Variants of: B1
- Assay Info: aptazyme ON/OFF ratio, guanine; higher = stronger switching; co-transcriptional cleavage with and without guanine
Value Type: aptazyme ON/OFF ratio

[
  {
    "Mutant Label": "U8C G9U U11G C12G C13U",
    "Measured": 1.09
  },
  {
    "Mutant Label": "G9A C12G",
    "Measured": 1.71
  },
  {
    "Mutant Label": "U7A U10C U11A C12G C13G",
    "Measured": 1.26
  },
  {
    "Mutant Label": "U7G U8A G9C U10G U11G C12A",
    "Measured": 1.08
  },
  {
    "Mutant Label": "U7A U10A U11G C13A",
    "Measured": 1.31
  },
  {
    "Mutant Label": "U7A U8A U11A C12A",
    "Measured": 1.44
  },
  {
    "Mutant Label": "U7C U8C U10C U11A C12G",
    "Measured": 1.05
  },
  {
    "Mutant Label": "U7A U8G G9U U10A U11A C12A C13U",
    "Measured": 1.42
  },
  {
    "Mutant Label": "U7C U8C G9U U10A C12G",
    "Measured": 1.22
  },
  {
    "Mutant Label": "U7C U8C G9A U11A C13U",
    "Measured": 1.32
  },
  {
    "Mutant Label": "U7A G9A U10A U11C C12A C13A",
    "Measured": 1.18
  }
]
